Cited source: paper PMC12082738

Reported metric: IC50 (µM)
// return numeric value only (unit: µM, not printed)

Data request: Given the entry O=C(O)[C@@H](O)[C@H]1OC(=O)[C@H](O)[C@H]1O [DSL, D-Saccharic acid 1,4-lactone, reference compound] , what IC50 was observed with E. coli β-GUS (Escherichia coli, UniProt P05804)?
Data returned: 55

Data request: Given the entry `CC(C)=CCc1c(O)c(CC=C(C)C)c2occ(-c3ccc(O)cc3)c(=O)c2c1O` , what IC50 was observed with E. coli β-GUS (Escherichia coli, UniProt P05804)?
Data returned: 4.05

====

Reported metric: Ki

Data request: Given the entry `CC(C)=CCc1c(O)c(CC=C(C)C)c2occ(-c3ccc(O)cc3)c(=O)c2c1O` , what Ki was observed with S. cerevisiae α-GUS (Saccharomyces cerevisiae, UniProt P07265)?
Data returned: 11.4 µM
